Quick reference: shrunken log2 fold change of the listed items.
# System: Escherichia coli TOP10;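 further: peptides expressed intracellularly from a pBAD plasmid library in pooled LB shake-flask culture, induced with 0.3% L-arabinose, DNA abundance read by NGS, three biological replicates, DESeq2 with apeglm shrinkage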
# ASSAY_NOTES: shrunken log2 fold change of peptide-encoding DNA abundance (4.5 h post-induction vs induction); higher = less antimicrobial activity (less host growth inhibition)
# TEST_CONDITIONS: time post-induction: 4.5 h; library: site-saturation at positions 5, 18, 19, 20
Answer with a bare number; do not write a unit.

Consider the worked cases shown below.
In [3]: df
Out[3]:
       biopolymer_sequence  numeric_value
0  RRIRNRPPRLPRPRPRPFYCPRP         -0.937
1  RRIRNRPPRLPRPRPRPWYMPRP         -0.911
2  RRIRERPPRLPRPRPRPKRWPRP           0.35
3  RRIRFRPPRLPRPRPRPPDHPRP           0.28

Pending sequence:
-- ask What value of shrunken log2 fold change has been recorded for this entry: "RRIRNRPPRLPRPRPRPMPIPRP"
-- reply -0.0173
